# Test name: yeast display, Sf9 membrane polyspecificity reagent, FACS + sequencing; frameworks hold sequencing errors
Reported metric: polyreactivity (PSR sort gate)

Answered cases to consult:
Monomer sequence: QVQLVESGGGLVQAGGSLRLSCAASGFTFARYAMGWYRQAPGKERELVAAITYSGGRTYYADSVKGRFTISRDNAKNTVYLQMNSLKPEDTAVYYCAARLSKRSGYYYWGQGTQVTVSS
Result: high polyreactivity
--
Monomer sequence: QVQLVESGGGLVQAGGSLRLSCAASGSTFGGYTMGWYRQAPGKERELVAAITSGGGRTYYADSVKGRFTISRDNSKNTVYLQMNSLKPEDTAVYYCATGYKGLYWKYDYWGQGTLVTVSS
Result: high polyreactivity
--
Monomer sequence: QVQLVESGGGLVQAGGSLRLSCAASGSIFDRYAMGWYRQAPGKERELVAAISRSGGSTYYADSVMGRFTISRDNAKNTVYLQMNSLKPEDTAVYYCAAYQHPGLRTSYEYWGQGTQVTVSS
Result: low polyreactivity
--
Monomer sequence: QVQLVDSGGGLVQAGGSLRLSCAASGRIFPYYDMGWYRQAPGKERELVAAITWNGGSTYYADSVKGRFTISRDNAKNTVYLQMNSLKPEDTAVYYWAVEPYYYGEDYWGQGTQVTVSS
Result: low polyreactivity

Given QVQLVESGVGLVQAGGSLRLSCAASGRIFTFNVMGWYRQAPGKERELVAAITFSGGSTYYADSVKGRFTISRDNAKNTVYLQMNRLKTEDTAVYFCAAKISLGDDYWGQGTQVTVSS , respond with its polyreactivity (PSR sort gate). low polyreactivity
